molecules and their reported IC50
# assayed-system: human TLR9 (Homo sapiens, UniProt Q9NR96)
# Construct: host or cells: HEK-Blue cells (HEK293-derived reporter line)
# Sequence (Q9NR96 26-1032): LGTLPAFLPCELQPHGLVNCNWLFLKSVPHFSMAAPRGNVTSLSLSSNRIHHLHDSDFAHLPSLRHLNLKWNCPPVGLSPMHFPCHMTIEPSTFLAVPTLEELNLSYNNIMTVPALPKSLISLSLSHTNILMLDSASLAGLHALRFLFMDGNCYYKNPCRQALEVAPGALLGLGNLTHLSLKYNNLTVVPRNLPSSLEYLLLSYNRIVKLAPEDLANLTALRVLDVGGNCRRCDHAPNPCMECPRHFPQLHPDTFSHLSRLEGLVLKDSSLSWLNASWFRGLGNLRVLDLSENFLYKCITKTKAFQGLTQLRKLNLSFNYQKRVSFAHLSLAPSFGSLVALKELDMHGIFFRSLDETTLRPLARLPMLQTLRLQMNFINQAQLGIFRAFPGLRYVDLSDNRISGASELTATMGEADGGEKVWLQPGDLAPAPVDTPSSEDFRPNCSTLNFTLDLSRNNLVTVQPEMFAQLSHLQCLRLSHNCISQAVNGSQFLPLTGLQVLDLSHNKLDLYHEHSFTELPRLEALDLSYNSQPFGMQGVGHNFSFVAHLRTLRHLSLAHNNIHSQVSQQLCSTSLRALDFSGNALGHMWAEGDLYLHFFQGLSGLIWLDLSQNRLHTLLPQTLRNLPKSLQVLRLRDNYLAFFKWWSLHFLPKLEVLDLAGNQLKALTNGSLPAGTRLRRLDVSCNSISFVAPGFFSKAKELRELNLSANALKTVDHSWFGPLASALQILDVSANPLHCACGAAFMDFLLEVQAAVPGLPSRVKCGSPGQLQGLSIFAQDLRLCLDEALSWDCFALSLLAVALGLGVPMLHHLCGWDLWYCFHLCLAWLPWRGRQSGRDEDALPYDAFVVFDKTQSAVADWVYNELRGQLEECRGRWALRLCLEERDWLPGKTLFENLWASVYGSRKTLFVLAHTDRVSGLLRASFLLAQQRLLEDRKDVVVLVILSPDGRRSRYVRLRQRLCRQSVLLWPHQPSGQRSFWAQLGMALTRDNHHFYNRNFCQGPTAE
# test-details: TLR9 inhibition reporter assay (HEK-Blue cells, SEAP reporter, ODN2006 stimulation)
# Type: cell-based
# condition-description: HEK-Blue cells overexpressing human TLR9, SEAP reporter, ODN2006 5 nM

Challenge: So what IC50 did COc1cc(-c2[nH]c3ccc(C4CCNCC4)cc3c2C(C)C)cc2nccn12 get with human TLR9 (Homo sapiens, UniProt Q9NR96)?
Response given: 100 to 1000 nM

Challenge: What do you get for CNCC(=O)N1CCC(c2ccc3[nH]c(-c4cc(C)nc5ccccc45)c(C(C)C)c3c2)CC1 ?
Response given: 1000 to 50000 nM

Challenge: What do you get for CC(C)c1c(-c2ccn3cnnc3c2)[nH]c2ccc(C3CCN(Cc4ncn(C)n4)CC3)cc12 ?
Response given: 1000 to 50000 nM

Challenge: Note, next up: Cc1nc2cc(-c3[nH]c4ccc(C5CCN(C6COC6)CC5)cc4c3C(C)C)ccn2n1
Response given: 1000 to 50000 nM

Challenge: # repeat for CC(C)c1c(-c2ccnc3[nH]ncc23)[nH]c2ccc(C3CCN(Cc4ccc(N5CCCC5)cc4)CC3)cc12
Response given: 1000 to 50000 nM

Challenge: Moving on to the next molecule: CNC(=O)CN1CCC(c2ccc3[nH]c(-c4nn5ncnc5c(C)c4C)c(C(C)C)c3c2)CC1
Response given: 1000 to 50000 nM

###

pIC50 by entry:
# assayed-system: human TLR7 (Homo sapiens, UniProt Q9NYK1)
# Sequence (Q9NYK1 27-1049): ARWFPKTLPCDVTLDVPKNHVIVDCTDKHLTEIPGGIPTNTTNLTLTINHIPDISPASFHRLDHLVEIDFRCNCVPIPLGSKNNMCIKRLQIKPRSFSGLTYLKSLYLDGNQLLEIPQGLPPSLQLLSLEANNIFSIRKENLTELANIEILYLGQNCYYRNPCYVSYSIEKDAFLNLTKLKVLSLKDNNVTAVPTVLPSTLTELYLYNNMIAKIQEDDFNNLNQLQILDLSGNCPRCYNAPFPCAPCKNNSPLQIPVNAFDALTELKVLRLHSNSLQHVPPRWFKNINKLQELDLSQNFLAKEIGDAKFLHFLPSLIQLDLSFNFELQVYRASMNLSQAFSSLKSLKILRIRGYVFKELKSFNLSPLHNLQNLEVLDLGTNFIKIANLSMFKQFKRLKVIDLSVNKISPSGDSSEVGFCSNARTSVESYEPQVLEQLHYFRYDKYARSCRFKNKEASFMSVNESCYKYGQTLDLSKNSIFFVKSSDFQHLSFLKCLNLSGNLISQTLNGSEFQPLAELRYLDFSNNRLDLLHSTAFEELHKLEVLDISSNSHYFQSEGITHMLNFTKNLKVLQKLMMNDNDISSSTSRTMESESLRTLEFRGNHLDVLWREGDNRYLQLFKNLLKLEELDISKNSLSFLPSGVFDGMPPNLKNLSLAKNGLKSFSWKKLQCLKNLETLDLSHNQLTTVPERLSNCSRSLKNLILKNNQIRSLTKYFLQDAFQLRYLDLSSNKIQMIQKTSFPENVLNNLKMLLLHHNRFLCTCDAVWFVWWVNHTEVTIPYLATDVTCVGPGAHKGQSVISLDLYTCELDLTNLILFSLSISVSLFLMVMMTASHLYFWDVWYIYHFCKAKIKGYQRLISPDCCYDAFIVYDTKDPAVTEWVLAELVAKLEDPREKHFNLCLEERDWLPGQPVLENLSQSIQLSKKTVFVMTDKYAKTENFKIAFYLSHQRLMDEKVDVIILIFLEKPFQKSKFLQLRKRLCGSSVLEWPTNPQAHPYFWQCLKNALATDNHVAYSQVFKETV
# test-details: TLR7 inhibition reporter assay (HEK-Blue cells, SEAP reporter, gardiquimod stimulation)
# condition-description: HEK-Blue cells overexpressing human TLR7, SEAP reporter, gardiquimod 7.5 μM
# Source text: TLR7/8/9 Inhibition Reporter Assays HEK-Blue™-cells (Invivogen) overexpressing human TLR7, TLR8 or TLR9 receptors were used for screening inhibitors of these receptors using an inducible SEAP (secreted embryonic alkaline phosphatase) reporter gene under the control of the IFN-β minimal promoter fused to five NF-κB and AP-1-binding sites. […]
pIC50: −log10 of the molar value.

Example entries begin here.
INSERT INTO results (mol_smiles, assayed_system, reported_value) VALUES
  ('CCc1c(-c2ccnc3[nH]cnc23)[nH]c2ccc(C3CCNCC3)cc12', 'human TLR7 (Homo sapiens, UniProt Q9NYK1)', '> 7.00'),
  ('CCCN1CCC(c2ccc3[nH]c(-c4cc(OC)c5ncnn5n4)c(C(C)C)c3c2)CC1', 'human TLR7 (Homo sapiens, UniProt Q9NYK1)', '> 7.00'),
  ('CC(C)c1c(-c2ccnc3[nH]ncc23)[nH]c2ccc(C3CCN(Cc4nccc5ccccc45)CC3)cc12', 'human TLR7 (Homo sapiens, UniProt Q9NYK1)', '6.00 to 7.00');

Challenge: What value of measured pIC50 is listed for Cc1cc(-c2[nH]c3ccc(C4CCN(C(=O)CCN5CCC(F)(F)CC5)CC4)cc3c2C(C)C)cn2nnnc12 ?
Response given: > 7.00

Challenge: What about CNC(=O)CN1CCC(c2ccc3[nH]c(-c4ccc5ncc(C#N)n5c4)c(C(C)C)c3c2)CC1 ?
Response given: 6.00 to 7.00

Challenge: Do the same for Cc1cc(-c2[nH]c3ccc(C4CCNCC4)cc3c2C(C)C)cn2c(C(N)=O)cnc12 please
Response given: > 7.00

Challenge: Now this one: Cc1cc(-c2[nH]c3ccc(C4CCN(CC(C)(C)O)CC4)cc3c2C(C)C)cc2nccn12
Response given: 4.30 to 6.00

Challenge: Try CNC(=O)CN1CCC(c2ccc3[nH]c(-c4ccn5nnc(C)c5c4)c(C(C)C)c3c2)CC1 next.
Response given: > 7.00

Challenge: What about this compound? Cc1cc(-c2[nH]c3ccc(C4CCN(Cc5ncn(C)n5)CC4)cc3c2C(C)C)cc2cnnn12
Response given: > 7.00

Challenge: Try this compound too: CC(C)c1c(-c2ccnc3[nH]ncc23)[nH]c2ccc(C3CCN(Cc4ccc(OCCN(C)c5ccccn5)cc4)CC3)cc12
Response given: 6.00 to 7.00

Challenge: Moving on to CC(C)c1c(-c2cn3ccnc3cc2C(F)(F)F)[nH]c2ccc(C3CCNCC3)cc12
Response given: 6.00 to 7.00

Challenge: What about Cc1cc(-c2[nH]c3ccc(C4CCN(C(=O)CCN5[C@@H]6CC[C@H]5COC6)CC4)cc3c2C(C)C)cn2nnnc12 ?
Response given: > 7.00

Challenge: Now consider COc1cc(-c2[nH]c3ccc(C4CCN(CC(C)(C)O)CC4)cc3c2C(C)C)cn2ccnc12 .
Response given: > 7.00

Challenge: Check CC(C)c1c(-c2cc(Cl)c3ncccc3c2)[nH]c2ccc(C3CCN(C(=O)CN(C)C)CC3)cc12 too.
Response given: > 7.00

Challenge: Moving on to the next compound: CC(C)c1c(-c2cn(C)c3ncccc23)[nH]c2ccc(C3CCN(CC(=O)N(C)C)CC3)cc12
Response given: > 7.00

Challenge: Subsequent entry: CC(C)c1c(-c2ccc3cnnn3c2)[nH]c2ccc(C3CCN(Cc4ncn(C)n4)CC3)cc12
Response given: 6.00 to 7.00

Challenge: Then CC(C)c1c(-c2ccc3ncsc3c2)[nH]c2ccc(C3CCN(CC(=O)N(C)C)CC3)cc12 ?
Response given: > 7.00

Challenge: What do we get for Cc1cc(-c2[nH]c3ccc(C4CCN(CC(N)=O)CC4)cc3c2C(C)C)cc2cccnc12 ?
Response given: > 7.00

Challenge: Also need Cc1cc(-c2[nH]c3ccc(C4CCN(C(=O)CCN5CC(C)(C)OC(C)(C)C5)CC4)cc3c2C(C)C)cn2nnnc12 , thanks.
Response given: > 7.00

Challenge: // next record Cc1cn2cc(-c3[nH]c4ccc(C5CCN(C(=O)C[C@@H](C)O)CC5)cc4c3CC(F)F)ccc2n1
Response given: 6.00 to 7.00

Challenge: Another compound: Cc1cn2cc(-c3[nH]c4ccc(C5CCN(Cc6cnn(C)c6)CC5)cc4c3C(C)C)cc(C(F)(F)F)c2n1
Response given: > 7.00
